Biological target: CXCR7 (Homo sapiens, UniProt P25106)
Sequence (P25106 whole entry): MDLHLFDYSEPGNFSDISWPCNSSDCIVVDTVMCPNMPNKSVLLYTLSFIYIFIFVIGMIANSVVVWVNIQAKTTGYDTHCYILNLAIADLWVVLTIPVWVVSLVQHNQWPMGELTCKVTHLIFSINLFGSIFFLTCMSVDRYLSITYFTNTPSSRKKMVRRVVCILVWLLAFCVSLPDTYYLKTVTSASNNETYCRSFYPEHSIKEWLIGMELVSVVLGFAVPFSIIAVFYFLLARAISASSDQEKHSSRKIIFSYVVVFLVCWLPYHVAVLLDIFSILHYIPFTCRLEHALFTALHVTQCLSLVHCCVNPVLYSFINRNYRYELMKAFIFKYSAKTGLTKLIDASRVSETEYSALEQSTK
Sequence (P32121 whole entry partner): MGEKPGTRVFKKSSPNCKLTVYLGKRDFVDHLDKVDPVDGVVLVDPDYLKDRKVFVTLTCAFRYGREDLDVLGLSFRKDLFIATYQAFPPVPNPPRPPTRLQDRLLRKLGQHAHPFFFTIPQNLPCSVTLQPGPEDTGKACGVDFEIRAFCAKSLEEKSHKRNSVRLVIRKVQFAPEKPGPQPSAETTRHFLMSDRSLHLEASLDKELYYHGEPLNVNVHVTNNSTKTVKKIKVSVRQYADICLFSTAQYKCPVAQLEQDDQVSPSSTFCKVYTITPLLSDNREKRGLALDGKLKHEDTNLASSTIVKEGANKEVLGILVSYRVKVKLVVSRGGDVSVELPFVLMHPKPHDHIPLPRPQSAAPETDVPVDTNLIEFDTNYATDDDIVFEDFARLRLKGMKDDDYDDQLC
Assay: PathHunter CHO-K1 CXCR7 b-arrestin recruitment assay (CXCR7 agonistic activity)
Settings: PathHunter CHO-K1 CXCR7 b-arrestin cell line
Experimental: The CXCl12 receptor and CXCR7 agonistic activities of the compounds of formula (I) are determined in accordance with the following experimental method. The assay is using the PathHunter™ CHO-K1 CXCR7 b-arrestin cell line from DiscoverX. The system is based on the Enzyme Fragment Complementation Technology. Two complementing fragments of the b-galactosidase enzyme are expressed within stably transfected cells. […]
measured-property: EC50 (nM)

compound="CC(C)(O)CN(Cc1ncccc1Br)C(=O)CNc1cccc2c1CN(C1CCC1)CC2 [compound 458]" experimental_result=109
compound="CCN1CCc2c(CCC(=O)N(CCN(C)C)Cc3ccccc3Cl)cccc2C1 [compound 155]" experimental_result=17
compound="CCN1CCc2cccc(NCC(=O)N(CCN(C)C)Cc3cccc(C(F)(F)F)c3)c2C1 [compound 505]" experimental_result=42
compound="CN1CCC(N(Cc2ccccc2)C(=O)CNc2cccc3c2CCN(CC2CC2)C3)C1 (racemic) [Example 180]" experimental_result=8
compound="CC(C)(O)CN(Cc1ncccc1Br)C(=O)CNc1cccc2c1CN(C(=O)[C@H]1C[C@H]1F)CC2 (relative stereo) [compound 461]" experimental_result=420
compound="CCC(=O)N1CCc2cccc(OCC(=O)N(CCN(C)C)Cc3ccccc3)c2C1 [Example 206]" experimental_result=26
compound="CCN1CCc2c(cccc2OCC(=O)N(CCN(C)C)Cc2ccccc2)C1 [compound 165]" experimental_result=61
compound="C=CCN1CCc2c(CCC(=O)N(CCN(C)C)Cc3ccccc3C(F)(F)F)cccc2C1 [Example 349]" experimental_result=12

Numbers sourced from patent US9920010B2.
